assay: qHTS Assay to Find Inhibitors of Chronic Active B-Cell Receptor Signaling: Hit Validation in Renilla Reporter Assay; settings: TMD8 IkB-Renilla luciferase reporter, NF-kB signaling; series mostly up to 57.5 µM; note: nearly all actives have a fitted effect of over 70% in size
Screen size: about 1,200 compounds; about 55 (5%) were called active. About 15% were inconclusive and are not listed. Calls come from the whole dose curve; as a rule, active = well fitted inhibition curve with a large enough effect; inconclusive = small, poorly fitted or top-dose-only effect; inactive = no such curve, though single readings can be large or run the other way. Many of the other results were omitted from the sample, so actives are more common in it than they were.
Give one outcome, nothing more. List: active, inactive

Would you please look over these solved cases?
MOLECULE	CLASS ASSIGNMENT
CNCc1ccccc1Sc1ccc(O)c(O)c1	active
CC(C)(C)c1ccc(C(=O)CCC(=O)NCc2ccccc2)cc1	inactive

How was O=C(Cc1n[nH]c(=O)c2ccccc12)OCC(=O)c1ccc2c(c1)OCCO2 classified in this test?
inactive

How was CC(=O)OCC(=O)[C@@]1(O)CC[C@H]2[C@@H]3CCC4=CC(=O)C=C[C@]4(C)[C@H]3[C@@H](O)C[C@@]21C classified in this test?
inactive

====

assay: qHTS Assay to Find Inhibitors of Chronic Active B-Cell Receptor Signaling: Hit Validation in Renilla Reporter Assay; conditions: TMD8 IkB-Renilla luciferase reporter, NF-kB signaling; series mostly up to 57.5 µM; note: nearly all actives have a fitted effect of over 70% in size; note: potency is the fitted concentration of half-maximal effect
The whole screen tested about 1,200 compounds, of which about 55 (5%) were called active. Another 15% or so got no clear call; they are omitted. The list comes from a sample in which actives are over-represented; it also holds close analogues and randomly drawn compounds.
MEASURED ATTRIBUTE: Potency

Examples with their reported Potency follow.
COMPOUND	MEASURED ATTRIBUTE	OBSERVED RESULT
CC(=O)Nc1cc(N=Cc2ccc(O)cc2O)c(Cl)cc1Cl	Potency	12 µM (active)
O=Cc1ccccc1OCCOc1ccccc1C=O	Potency	12 µM (active)
COc1ccc(C(=O)Nc2ccc(-n3nncc3-c3ccc(OC)c(OC)c3)cc2)cc1	Potency	inactive
COc1ccc(NC(=S)N/N=C/c2ccc(F)cc2)cc1OC	Potency	inactive
COc1cc(/C=C2\N=C(c3ccccc3)NNC2=O)cc(OC)c1OC	Potency	inactive
O=C(NN=C1CCCC1)c1n[nH]c2c1CCCC2	Potency	inactive

# context switch: different compound, same Potency
Fill in the blank: the reported Potency of CCSc1nc(-c2ccccc2)nc(C(Cl)Cl)n1 is ____.
2.69 µM (active)

====

Experiment: qHTS Assay to Find Inhibitors of Chronic Active B-Cell Receptor Signaling: Hit Validation in Renilla Reporter Assay; note: nearly all actives have a fitted effect of over 70% in size
Settings: TMD8 IkB-Renilla luciferase reporter, NF-kB signaling; series mostly up to 57.5 µM
Text: Diffuse large B-cell lymphoma (DLBCL) is the most common category of non-Hodgkin lymphoma, with ~20,000 new cases per year in the United States. DLBCL should be regarded as a collection of different neoplasms. Microarray gene expression analysis has defined two principal types of DLBCL, named for their similarity to normal B cell stages or activation states: a germinal center B-cell (GCB) type, and an activated B-cell (ABC) type. […]
Hit rate of the full screen: of about 1,200 compounds, about 55 (5%) were called active. Inconclusive results (about 15%) are left out. Calls follow the shape of the dose curve; as a rule, active = well fitted inhibition curve with a large enough effect; inconclusive = small, poorly fitted or top-dose-only effect; inactive = no such curve, though single readings can be large or run the other way. The full list was thinned out, with actives kept by preference.
Give one outcome, nothing more. List: Y = active, N = inactive

Would you please look over these solved cases?
COMPOUND	CLASS ASSIGNMENT
Cc1ccc(C)c(-n2c3nc(=O)[nH]c(=O)c-3cc3cc([N+](=O)[O-])ccc32)c1	Y
O=c1cc(-c2ccccc2)[nH]c2ccccc12	N
C=CCOc1ccc(/C=C2\SC(N)=NC2=O)cc1OC	N
COc1cc(OC)cc(C(=O)Oc2c(CN3CCOCC3)cc(Cl)c3cccnc23)c1	N
Cc1c(C(=O)Oc2cccc3cccnc23)oc2ccccc12	N

How was CC[C@@H](C)[C@H](NC(=O)CCc1c(C)c2cc3c4c(oc3c(C)c2oc1=O)CCCC4)C(=O)O classified in this test?
N

How was CC(=O)Nc1nc2ccc(-c3nc4ccccc4o3)cc2s1 classified in this test?
N

How was N#Cc1ccc(-c2cccs2)nc1SCc1cccnc1 classified in this test?
N

How was OC(CNCc1ccc(-c2ccccc2)cc1)c1ccccc1 (configuration not stated) classified in this test?
N

How was COc1ccc(/C=C/C(=O)c2cc(F)ccc2OC(=O)c2ccc(OC)c(OC)c2)cc1OC classified in this test?
Y

How was COc1ccc(N(C(=O)c2ccccc2C)S(=O)(=O)c2cccs2)cc1 classified in this test?
N

How was O=C(Oc1c(Cl)cc(Cl)c2cccnc12)c1cccs1 classified in this test?
Y

How was Cc1ccc(Sc2c(CO)c(-c3ccccc3)nn2C)cc1 classified in this test?
N

How was O=C(Cc1ccc(-c2ccccc2)cc1)NCc1ccccc1 classified in this test?
N
